Each record here notes measured pIC50.
biological target: EP2 (Homo sapiens); assay: cell-based;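 also: functional calcium flux assay in stably transfected HEK293 cells expressing EP2 coupled via a promiscuous G protein, clytin luminescence read as area under the curve, 30 min compound preincubation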
Sequence (P43116 whole entry): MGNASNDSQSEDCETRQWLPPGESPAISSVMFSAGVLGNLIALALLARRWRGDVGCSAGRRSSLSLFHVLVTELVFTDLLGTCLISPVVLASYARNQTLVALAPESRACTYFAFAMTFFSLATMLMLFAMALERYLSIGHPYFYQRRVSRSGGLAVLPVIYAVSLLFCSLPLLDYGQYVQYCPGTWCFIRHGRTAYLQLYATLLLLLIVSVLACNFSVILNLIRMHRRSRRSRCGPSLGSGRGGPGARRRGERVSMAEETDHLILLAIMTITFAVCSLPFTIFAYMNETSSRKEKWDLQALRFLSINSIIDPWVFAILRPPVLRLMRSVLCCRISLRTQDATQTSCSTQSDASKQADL
pIC50: −log10 of the molar value.

Field: example entries. Status: answers known.
O=C(NC1CC2(C1)CC(C(=O)O)C2)c1ccc(F)c2ccn(Cc3ccc(-c4ccccc4)c(F)c3)c12 (stereo not drawn) [Example 65]; 7.37
CCOc1cc(-c2ccc(Cn3ncc4cc(Cl)cc(C(=O)NC5CC6(C5)CC(C(=O)O)C6)c43)cc2)ccn1 (stereo not drawn) [Example 136]; > 7.60
[2H]C([2H])([2H])C([2H])(c1ccc(-c2ccccc2)cc1)n1ncc2cccc(C(=O)NC3CC4(C3)CC(C(=O)O)C4)c21 (single isomer, unassigned) [Example 169]; 7.20
COc1cc(-c2ccc(Cn3ccc4c(F)ccc(C(=O)NC5CC6(C5)CC(C(=O)O)C6)c43)cc2)ccc1F (racemic) [Example 19]; > 7.60

Data request: State the recorded pIC50 for this entry: O=C(NC1CC2(C1)CC(C(=O)O)C2)c1cccc2cnn(Cc3ccc(-c4ccccc4)cc3)c12 (racemic) [Example 33]
Data returned: > 7.60

Data request: State the recorded pIC50 for this entry: O=C(NC1CC2(C1)CC(C(=O)O)C2)c1ccc(Cl)c2cnn(C3(c4ccc(-c5ccccc5)cc4)COC3)c12 (stereo not drawn) [Example 176]
Data returned: > 7.60

* * *

target: UniProtKB P43116; test: cell-based
measured.endpoint: IC50 (nM)
Answer with a number only, understood to be in nM.

[2H]C([2H])([2H])C([2H])(c1ccc(-c2ccccc2)cc1)n1ncc2cccc(C(=O)NC3CC4(C3)CC(C(=O)O)C4)c21 (racemic) [Example 168]; 28
CCOc1cccc(-c2ccc(C(C)n3ncc4cccc(C(=O)NC5CC6(C5)CC(C(=O)O)C6)c43)cc2)n1 (racemic); 65
CC(C)(C)c1ccc(Cn2ccc3c(C#N)ccc(C(=O)NC4CC5(C4)CC(C(=O)O)C5)c32)cc1 (racemic); 45
O=C(O)CC1CC2(C1)CC(NC(=O)c1cc(F)cc3cnn(Cc4ccc(-c5ccccc5)cc4)c13)C2 (racemic); 33
CS(=O)(=O)NC(=O)C1CC2(CC(NC(=O)c3ccc(F)c4ccn(Cc5ccc(OC(F)(F)F)cc5)c34)C2)C1 (centres unmarked); 38

Data request: State the recorded IC50 for this entry: O=C(NC1CC2(C1)CC(C(=O)O)C2)c1ccc(F)c2ccn(Cc3ccc(N4CCOCC4)cc3)c12 (racemic)
Data returned: 44

Data request: State the recorded IC50 for this entry: COc1ccccc1-c1ccc(Cn2ccc3c(F)ccc(C(=O)NC4CC5(C4)CC(C(=O)O)C5)c32)cc1 (racemic)
Data returned: 34

Data request: State the recorded IC50 for this entry: CCOc1cccc(-c2ccc(Cn3ccc4c(F)ccc(C(=O)NC5CC6(C5)CC(C(=O)O)C6)c43)cc2)n1 (centres unmarked)
Data returned: 76

Data request: State the recorded IC50 for this entry: O=C(NC1CC2(C1)CC(C(=O)O)C2)c1ccc(F)c2ccn(Cc3ccc(-c4ccc(OC5COC5)c(Cl)c4)cc3)c12 (racemic)
Data returned: 51

Data request: State the recorded IC50 for this entry: O=C(NC1CC2(C1)CC(C(=O)O)C2)c1ccc(F)c2ccn(Cc3ccc(-c4ccc(OC5COC5)cc4)cc3)c12 (racemic)
Data returned: 60

Data request: State the recorded IC50 for this entry: COc1ccc2cc(-c3ccc(Cn4ccc5c(F)ccc(C(=O)NC6CC7(CC(CC(=O)O)C7)C6)c54)cc3)ccc2n1 (single isomer, unassigned) [Example 137]
Data returned: 64

Data request: State the recorded IC50 for this entry: CCOc1cc(-c2ccc(Cn3ccc4c(F)ccc(C(=O)NC5CC6(C5)CC(C(=O)O)C6)c43)cc2)ccn1 (racemic)
Data returned: 72

Data request: State the recorded IC50 for this entry: CCOc1cccc(-c2ccc(Cn3ccc4c(F)ccc(C(=O)NC5CC6(C5)CC(C(=O)O)C6)c43)cc2)c1 (centres unmarked)
Data returned: 43
